Recorded pIC50, one value per entry.
# STUDY TARGET: ATX (Rattus norvegicus, UniProt Q64610)
# EXPERIMENT: Choline oxidase-coupled choline-release assay of LPC hydrolysis by ATX
# SETUP CONDITIONS: LPC hydrolysis assay, 20 nM ATX
pIC50: −log10 of the molar value.
PROPERTY: pIC50

>>> readout_number("C[C@H](CCC(=O)NCCOc1ccc(B2OC(C)(C)C(C)(C)O2)cc1)[C@H]1CC[C@H]2C3[C@@H](O)C[C@@H]4C[C@H](O)CC[C@]4(C)[C@H]3CC[C@]12C (stereo partly shown) [Compound 14]")
5.82
>>> readout_number("C[C@H](CCC(=O)NCCCOc1ccc(B(O)O)cc1)[C@H]1CC[C@H]2C3[C@@H](O)C[C@@H]4C[C@H](O)CC[C@]4(C)[C@H]3CC[C@]12C (stereo partly shown) [Compound 18]")
7.30
>>> readout_number("C[C@H](CCC(=O)N1CCC(Oc2ccc(B3OC(C)(C)C(C)(C)O3)cc2)CC1)[C@H]1CC[C@H]2C3[C@@H](O)C[C@@H]4C[C@H](O)CC[C@]4(C)[C@H]3CC[C@]12C (stereo partly shown) [Compound 19]")
7.10
>>> readout_number("C[C@H](CCC(=O)NCCCOc1cccc(B2OC(C)(C)C(C)(C)O2)c1)[C@H]1CC[C@H]2C3[C@@H](O)C[C@@H]4C[C@H](O)CC[C@]4(C)[C@H]3CC[C@]12C (stereo partly shown) [Compound 15]")
6.82

---

# STUDY TARGET: ATX (Rattus norvegicus, UniProt Q64610)
# EXPERIMENT: Choline oxidase-coupled choline-release assay of LPC hydrolysis by ATX
# SETUP CONDITIONS: LPC hydrolysis assay, 20 nM ATX
Recorded Residual Activity (%), one value per entry.
PROPERTY: Residual Activity (%)

>>> readout_number("C[C@H](CCC(=O)N1CCC(Oc2ccc([B-](F)(F)F)cc2)CC1)[C@H]1CC[C@H]2C3[C@@H](O)C[C@@H]4C[C@H](O)CC[C@]4(C)[C@H]3CC[C@]12C.[K+] (stereo partly drawn) [Compound 22]")
0
>>> readout_number("C[C@H](CCC(=O)NCCCOc1ccc(B2OC(C)(C)C(C)(C)O2)cc1)[C@H]1CC[C@H]2C3[C@@H](O)C[C@@H]4C[C@H](O)CC[C@]4(C)[C@H]3CC[C@]12C (stereo partly drawn) [Compound 16]")
0.3
>>> readout_number("C[C@H](CCC(=O)NCCCOc1cccc(B2OC(C)(C)C(C)(C)O2)c1)[C@H]1CC[C@H]2C3[C@@H](O)C[C@@H]4C[C@H](O)CC[C@]4(C)[C@H]3CC[C@]12C (stereo partly drawn) [Compound 15]")
1.7

---

# STUDY TARGET: ATX (Rattus norvegicus, UniProt Q64610)
# EXPERIMENT: Choline oxidase-coupled choline-release assay of LPC hydrolysis by ATX
# SETUP CONDITIONS: 14:0 LPC, 150 μM LPC, 20 nM ATX
PROPERTY: IC50 (µM)

>>> readout_number("C[C@H](CCC(=O)N1CCC(Oc2ccc([B-](F)(F)F)cc2)CC1)[C@H]1CC[C@H]2C3[C@@H](O)C[C@@H]4C[C@H](O)CC[C@]4(C)[C@H]3CC[C@]12C.[K+] (some centres unmarked)")
0.084
>>> readout_number("C[C@H](CCC(=O)N1CCC(Oc2ccc(B(O)O)cc2)CC1)[C@H]1CC[C@H]2C3[C@@H](O)C[C@@H]4C[C@H](O)CC[C@]4(C)[C@H]3CC[C@]12C (some centres unmarked)")
0.054
